Target: T1, SNTA1, Q13424
T1 sequence (Q13424 82-180, limits assumed, looked up): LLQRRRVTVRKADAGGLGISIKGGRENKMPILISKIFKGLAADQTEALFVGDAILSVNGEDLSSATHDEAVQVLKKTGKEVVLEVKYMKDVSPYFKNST
Test: holdup assay
Set-up: key: below the threshold = too weak to quantify, mostly under pKd 3.1 to 4
Conditions: plain residues with an end cap or a label only (N-terminal biotin on a linker: ttds)
Please respond with reported pKd for every item in the list.
Reply briefly: the number, and no unit.

Record summary for PPRQRSETQV [HPV82-E6, Q9IR59] : reported pKd = 4.15

Entry NPDALPETLV [ARHGAP6, O43182] , pKd reported as 5.05

Looking up KLVIKTETTV [RASSF6, Q6ZTQ3] , I see its pKd listed as 4.36

Per the records, this binder ( DLDEEEDTHL [PODXL, O00592] ) has pKd equal to 3.63

Form field pKd, entry GRLLGLETNV [ARHGEF26, Q96DR7] : 4.7

Just for reference, paper PMC9482650 is where these values come from.
